Each recorded value in this set is attributed to patent US20160318856A1.

Test system: CRL-2813 human melanoma cancer cells
Assay: cell proliferation (SRB) assay, CRL-2813
Type: cell-based
Conditions: Homo sapiens, CRL2813; CRL-2813, Table 8; Mean IC50±S.E.M.; read-out: IC50 of compounds
Method: Cells were seeded in 96-well plates and maintained for 5 days in the presence of 0.5 to 20 μM of individual compound, and cell proliferation was measured by the sulforhodamine B (SRB) assay as described previously (see, for example, Palakurthi, S. S. et al. Cancer Research 2000, 60(11), 2919-2925). […] The percentage of growth was calculated by using the equation: 100×[(T−T0)/(C−T0)], where T and C represent the absorbance in treated and control cultures at Day 5, and T0 at time zero, respectively. […]
pIC50: −log10 of the molar value.
We begin with a simple list: items and their reported pIC50.
PARAMETER: pIC50

compound="O=C(Nc1cccc(C(F)(F)F)c1)NC1CCC(Oc2ccc(C(F)(F)F)cc2)CC1 (stereo not drawn)" parameter=pIC50 value=6.34
compound="O=C(Nc1cccc(C(F)(F)F)c1)NC1CCC(Oc2ccc(OC(F)(F)F)cc2)CC1 (stereo not drawn)" parameter=pIC50 value=6.16
compound="O=C(Nc1cccc(C(F)(F)F)c1)NC1CCC(Oc2cccc(C(F)(F)F)c2)CC1 (stereo not drawn)" parameter=pIC50 value=5.89

----------
Reported Emax (F/R) values are given for each entry in this list.
Test system: eIF2α phosphorylation (eIF2•GTP•Met-tRNAi ternary complex; HRI activation)
Experiment: surrogate dual luciferase eIF2α phosphorylation (ternary complex) assay
Format: cell-based, human
Settings: 30 μM compound
PARAMETER: Emax (F/R)

compound=Cc1ccccc1NC(=O)N[C@H]1CC[C@H](OCc2c(F)cccc2F)CC1 parameter="Emax (F/R)" unit_abbrev=F/R value=0.83
compound=O=C(Nc1ccc(C(F)(F)F)cc1)N[C@H]1CC[C@H](OCc2c(F)cccc2F)CC1 parameter="Emax (F/R)" unit_abbrev=F/R value=0.85
compound=O=C(Nc1ccc([N+](=O)[O-])cc1)N[C@H]1CC[C@H](OCc2c(F)cccc2F)CC1 parameter="Emax (F/R)" unit_abbrev=F/R value=0.83
compound=O=C(Nc1cccc([N+](=O)[O-])c1)N[C@H]1CC[C@H](OCc2c(F)cccc2F)CC1 parameter="Emax (F/R)" unit_abbrev=F/R value=0.94
compound=O=C(Nc1ccccc1Cl)N[C@H]1CC[C@H](OCc2c(F)cccc2F)CC1 parameter="Emax (F/R)" unit_abbrev=F/R value=0.81
compound="CSc1ccccc1NC(=O)N[C@H]1CC[C@H](OCc2c(F)cccc2F)CC1 [II-10o]" parameter="Emax (F/R)" unit_abbrev=F/R value=0.83

----------
Test system: eIF2α phosphorylation (eIF2•GTP•Met-tRNAi ternary complex; HRI activation)
Experiment: surrogate dual luciferase eIF2α phosphorylation (ternary complex) assay
Assay type: cell-based, human
Conditions: 15 μM compound
Entries annotated with measured Emax (F/R)
PARAMETER: Emax (F/R)

cpd_smiles=O=C(Nc1cccc([N+](=O)[O-])c1)N[C@H]1CC[C@H](OCc2c(F)cccc2F)CC1 unit_abbrev=F/R value=0.76
cpd_smiles=O=C(Nc1ccccc1)N[C@H]1CC[C@H](OCc2c(F)cccc2F)CC1 unit_abbrev=F/R value=0.88
cpd_smiles=O=C(Nc1ccc(Cl)cc1)N[C@H]1CC[C@H](OCc2c(F)cccc2F)CC1 unit_abbrev=F/R value=0.96
cpd_smiles=COc1ccc(NC(=O)N[C@H]2CC[C@H](OCc3c(F)cccc3F)CC2)cc1 unit_abbrev=F/R value=0.71
cpd_smiles=O=C(Nc1cccc(Br)c1)N[C@H]1CC[C@H](OCc2c(F)cccc2F)CC1 unit_abbrev=F/R value=1.04
